Give measured pIC50 for each item. Keep answers brief.
target: DOT1L(1-416) (Homo sapiens); test: Determination of IC50: DOT1L(1-416) methyltransferase assay, 3H-SAM, oligonucleosome substrate, Flashplate; format: biochemical; settings: class symbols; read-out: DOT1L IC50
pIC50: −log10 of the molar value.

Example molecules with recorded pIC50:
Molecule	pIC50
CC(C)N(C[C@H]1O[C@@H](n2cnc3c(N)ncnc32)[C@H](O)[C@@H]1O)[C@H]1C[C@H](CCc2nc3cc(Cl)c(C(F)(F)F)cc3[nH]2)C1	> 7.00
CC(C)N(C[C@H]1C[C@@H](n2ccc3c(N)ncnc32)[C@H](O)[C@@H]1O)C1CC(CCc2nc3cc(OC(F)(F)F)ccc3[nH]2)C1 (stereo partly drawn)	> 7.00
CN(C[C@H]1O[C@@H](n2cnc3c(N)ncnc32)[C@H](O)[C@@H]1O)[C@H]1C[C@@H](CCc2nc3cc(C4(C)CCC4)ccc3[nH]2)C1	> 7.00
CN(C[C@H]1O[C@@H](n2ccc3c(N)ncnc32)[C@H](O)[C@@H]1O)[C@H]1C[C@@H](CCc2nc3cc(OC(F)(F)F)ccc3[nH]2)C1	> 7.00
CC(C)N(C[C@H]1O[C@@H](n2cnc3c(N)ncnc32)[C@H](O)[C@@H]1O)[C@H]1C[C@@H](CCc2nc3cc(C4(C)CCC4)ccc3[nH]2)C1	> 7.00

Exam item: Query pIC50 for CC(C)N(CC1CC(Cc2nc3cc(C(F)(F)F)ccc3[nH]2)C1)C[C@H]1C[C@@H](n2ccc3c(N)ncnc32)[C@H](O)[C@@H]1O (stereo partly drawn)
Marked response: 5.00 to 6.00

---

assay: Plasma levels of Compound 2 in the xenograft study; assay type: in vivo, female nude mice; settings: female, nude, mouse, subcutaneous, Group 5, 56 mg/kg/day minipump, read-out: average plasma level from the last sampling on day 21
Recorded metric: concentration at 21 day (ng/mL)
Give bare numbers, in ng/mL.

Exam item: Query concentration at 21 day for CC(C)N(C[C@H]1O[C@@H](n2cnc3c(N)ncnc32)[C@H](O)[C@@H]1O)[C@H]1C[C@@H](CCc2nc3cc(C(C)(C)C)ccc3[nH]2)C1 [Compound 2]
Marked response: 52

---

biological target: DOT1L(1-416) (Homo sapiens, UniProt Q8TEK3); test: Determination of IC50: DOT1L(1-416) methyltransferase assay, 3H-SAM, oligonucleosome substrate, Flashplate; type: biochemical; conditions: class symbols; read-out: DOT1L IC50
Sequence (Q8TEK3 1-416): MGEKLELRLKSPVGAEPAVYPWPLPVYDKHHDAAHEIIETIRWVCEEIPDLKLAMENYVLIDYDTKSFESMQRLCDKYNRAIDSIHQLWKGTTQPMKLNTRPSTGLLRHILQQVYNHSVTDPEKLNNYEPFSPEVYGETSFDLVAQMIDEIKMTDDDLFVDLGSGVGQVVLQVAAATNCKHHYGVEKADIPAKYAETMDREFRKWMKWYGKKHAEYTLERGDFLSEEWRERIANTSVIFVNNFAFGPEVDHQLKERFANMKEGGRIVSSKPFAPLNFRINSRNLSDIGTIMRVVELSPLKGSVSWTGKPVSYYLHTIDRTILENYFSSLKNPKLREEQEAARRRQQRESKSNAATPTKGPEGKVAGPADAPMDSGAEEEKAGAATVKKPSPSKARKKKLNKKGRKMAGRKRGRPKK
pIC50: −log10 of the molar value.
Recorded metric: pIC50

Example compounds with recorded pIC50:
CC(C)N(C[C@@H]1C[C@@H](O)[C@H](n2ccc3c(N)ncnc32)C1)[C@H]1C[C@H](CCc2nc3cc(C(C)(C)C)ccc3[nH]2)C1 5.00 to 6.00
CN(C[C@H]1O[C@@H](n2ccc3c(N)ncnc32)[C@H](O)[C@@H]1O)[C@H]1C[C@H](CCc2nc3cc(C(C)(C)C)ccc3[nH]2)C1 > 7.00

Okay, now this compound:
Exam item: Query pIC50 for `CN(C[C@H]1C[C@@H](n2ccc3c(N)ncnc32)[C@H](O)[C@@H]1O)[C@H]1C[C@H](CCc2nc3cc(C(F)(F)F)ccc3[nH]2)C1`
Marked response: > 7.00

---

target: DOT1L(1-416) (Homo sapiens, UniProt Q8TEK3); assay: Determination of IC50: DOT1L(1-416) methyltransferase assay, 3H-SAM, oligonucleosome substrate, Flashplate; format: biochemical; conditions: class symbols; read-out: DOT1L IC50
pIC50: −log10 of the molar value.
Recorded metric: pIC50

Compound	Recorded metric	Experimental value
CN(C[C@@H]1C[C@@H](O)[C@H](n2ccc3c(N)ncnc32)C1)C1CC(CCc2nc3cc(Cl)c(C(F)(F)F)cc3[nH]2)C1 (stereo partly drawn)	pIC50	6.00 to 7.00

Report pIC50 for every entry below.
1. CC(C)N(C[C@H]1C[C@@H](n2cnc3c(N)ncnc32)[C@H](O)[C@@H]1O)C1CC(CCc2nc3cc(C(C)(C)C)ccc3[nH]2)C1 (stereo partly drawn)
2. CC(C)(C)c1ccc2[nH]c(CC[C@H]3C[C@@H](N(C[C@H]4O[C@@H](n5ccc6c(N)ncnc65)[C@H](O)[C@@H]4O)CC(F)(F)F)C3)nc2c1
3. COCC(C)(C)c1ccc2[nH]c(CC[C@H]3C[C@H](N(C[C@H]4O[C@@H](n5cnc6c(N)ncnc65)[C@H](O)[C@@H]4O)C(C)C)C3)nc2c1

Marked response:
> 7.00
5.00 to 6.00
> 7.00

Report pIC50 for every entry below.
1. CC(C)N(CC1CC(Cc2nc3cc(C(C)(C)C)ccc3[nH]2)C1)C[C@H]1C[C@@H](n2ccc3c(N)ncnc32)[C@H](O)[C@@H]1O (stereo partly drawn)
2. CN(C[C@H]1O[C@@H](n2cnc3c(N)ncnc32)[C@H](O)[C@@H]1O)[C@H]1C[C@H](CCc2nc3cc(C4CC4)ccc3[nH]2)C1

Marked response:
1: 6.00 to 7.00; 2: > 7.00

---

biological target: DOT1L(1-416) (Homo sapiens, UniProt Q8TEK3); test: Determination of IC50: DOT1L(1-416) methyltransferase assay, 3H-SAM, oligonucleosome substrate, Flashplate; assay type: biochemical; settings: class symbols; read-out: DOT1L IC50
Recorded metric: IC50

Example compounds with recorded IC50:
Compound	Recorded metric	Experimental value
CC(C)N(C[C@H]1C[C@@H](n2ccc3c(N)ncnc32)[C@H](O)[C@@H]1O)[C@H]1C[C@@H](CCc2nc3cc(C(C)(C)C)ccc3[nH]2)C1 [Compound 41]	IC50	< 100 nM
CN(C[C@H]1O[C@@H](n2cnc3c(N)ncnc32)[C@H](O)[C@@H]1O)[C@H]1C[C@@H](CCc2nc3cc(C4COC4)ccc3[nH]2)C1 [Compound 63]	IC50	100 to 1000 nM
CCN(C[C@H]1O[C@@H](n2cnc3c(N)ncnc32)[C@H](O)[C@@H]1O)C1CC(CCc2nc3cc(C(C)(C)C)ccc3[nH]2)C1 (stereo partly drawn) [Compound 79]	IC50	< 100 nM
CC(C)CN(C[C@H]1C[C@@H](n2ccc3c(N)ncnc32)[C@H](O)[C@@H]1O)[C@H]1C[C@H](CCc2nc3cc(C(C)(C)C)ccc3[nH]2)C1 [Compound 48]	IC50	< 100 nM
CN(C[C@H]1C[C@@H](n2ccc3c(N)ncnc32)[C@H](O)[C@@H]1O)[C@H]1C[C@H](CCc2nc3cc(Cl)c(Cl)cc3[nH]2)C1 [Compound 58]	IC50	< 100 nM

Okay, now this compound:
Exam item: Query IC50 for CC(C)(C)c1ccc2[nH]c(CC[C@H]3C[C@@H](NC[C@H]4O[C@@H](n5cnc6c(N)ncnc65)[C@H](O)[C@@H]4O)C3)nc2c1 [Compound 98]
Marked response: < 100 nM

---

Give measured IC50 for each item. Keep answers brief.
target: DOT1L(1-416) (Homo sapiens); experiment: Determination of IC50: DOT1L(1-416) methyltransferase assay, 3H-SAM, oligonucleosome substrate, Flashplate; format: biochemical; settings: read-out: DOT1L IC50
Numbers only, in nM.

Example compounds with recorded IC50:
Compound	Unit name	IC50
CC(C)N(C[C@H]1O[C@@H](n2ccc3c(N)ncnc32)[C@H](O)[C@@H]1O)[C@H]1C[C@H](CCc2nc3cc(C(C)(C)C)ccc3[nH]2)C1 [Compound 75]	nM	0.59
CN(C[C@H]1O[C@@H](n2ccc3c(N)ncnc32)[C@H](O)[C@@H]1O)[C@H]1C[C@@H](CCc2nc3cc(C(C)(C)C)ccc3[nH]2)C1 [Compound 86]	nM	0.62
CC(C)N(C[C@H]1O[C@@H](n2ccc3c(N)ncnc32)[C@H](O)[C@@H]1O)[C@H]1C[C@@H](CCc2nc3cc(OC(F)(F)F)ccc3[nH]2)C1 [Compound 87]	nM	0.8

Okay, now this compound:
Exam item: Query IC50 for CC(C)N(C[C@H]1O[C@@H](n2cnc3c(N)ncnc32)[C@H](O)[C@@H]1O)[C@H]1C[C@@H](CCc2nc3cc(Cl)c(C(F)(F)F)cc3[nH]2)C1 [Compound 5]
Marked response: 0.59

---

target: DOT1L(1-416) (Homo sapiens); assay: Determination of IC50: DOT1L(1-416) methyltransferase assay, 3H-SAM, oligonucleosome substrate, Flashplate; format: biochemical; details: class symbols; read-out: DOT1L IC50
pIC50: −log10 of the molar value.
Recorded metric: pIC50

Molecule	Experimental value
CC(C)N(C[C@H]1O[C@@H](n2cnc3c(N)ncnc32)[C@H](O)[C@@H]1O)C1CC(CCc2nc3cc(C4CCC4)ccc3[nH]2)C1 (stereo partly drawn) [Compound 67]	> 7.00

Report pIC50 for every entry below.
1. CC(C)(C)c1ccc2[nH]c(CCC3CC(N(C[C@H]4C[C@@H](n5ccc6c(N)ncnc65)[C@H](O)[C@@H]4O)C4CCC4)C3)nc2c1 (stereo partly drawn)
2. CN(C[C@H]1O[C@@H](n2cnc3c(N)ncnc32)[C@H](O)[C@@H]1O)C1CC(CNC(=O)Nc2ccc(C(C)(C)C)cc2)C1 (stereo partly drawn)

Marked response:
["> 7.00", "> 7.00"]

meta.source: patent US8580762B2
